target: UniProt P47745; assay: ChEBML_29278
Sequence (P47745 whole entry): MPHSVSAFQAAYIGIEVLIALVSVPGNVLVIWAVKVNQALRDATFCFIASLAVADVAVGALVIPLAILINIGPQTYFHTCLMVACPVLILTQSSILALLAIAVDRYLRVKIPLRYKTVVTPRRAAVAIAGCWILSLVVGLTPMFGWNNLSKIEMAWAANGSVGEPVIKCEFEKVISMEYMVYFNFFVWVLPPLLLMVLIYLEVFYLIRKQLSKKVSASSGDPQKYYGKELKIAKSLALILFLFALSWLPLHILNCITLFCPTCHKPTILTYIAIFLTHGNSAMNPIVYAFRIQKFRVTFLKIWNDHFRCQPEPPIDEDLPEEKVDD
observable: EC50

                                   compound  target_or_test_system   result
0  CCCCCN=Nc1nc(N)c2ncn(C3O[C@H](CO)[C@@H](O)[C@H]3O)c2n1 (stereo partly specified)         UniProt P47745  25.1 µM
